For each entry below, report its IC50 value.
# TESTED TARGET: TGF-beta kinase ALK5 (GST-ALK5) (Homo sapiens)
# Sequence (P36897 34-503): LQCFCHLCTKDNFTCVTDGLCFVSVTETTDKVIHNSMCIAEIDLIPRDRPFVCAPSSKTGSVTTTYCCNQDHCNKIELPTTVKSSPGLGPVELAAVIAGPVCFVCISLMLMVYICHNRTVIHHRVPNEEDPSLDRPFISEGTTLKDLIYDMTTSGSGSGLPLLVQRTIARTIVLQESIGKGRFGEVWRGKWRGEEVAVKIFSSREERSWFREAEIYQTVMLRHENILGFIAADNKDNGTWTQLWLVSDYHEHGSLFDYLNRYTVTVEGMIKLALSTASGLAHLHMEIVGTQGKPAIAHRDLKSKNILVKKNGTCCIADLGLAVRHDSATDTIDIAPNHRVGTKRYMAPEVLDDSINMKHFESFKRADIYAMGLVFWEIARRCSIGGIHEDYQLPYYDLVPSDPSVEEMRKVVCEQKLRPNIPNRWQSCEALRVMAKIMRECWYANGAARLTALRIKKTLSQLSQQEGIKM
# METHOD SUMMARY: Test for the inhibition of ALK-5 (flashplate kinase assay)
# Format: biochemical
# ASSAY CONDITIONS: enzymatic; GST-ALK5, GST-SMAD2 substrate; read-out: IC50 [nM] [TGF-beta] enzym. ALK5
Unit nM implied. Number only.

Q: Field request: IC50 | item: "Cc1[nH]c2ncccc2c1-c1nccc2c(N)nccc12"
A: 16

Q: Field request: IC50 | item: "Cc1[nH]c2ncccc2c1-c1cnc(N)c2cnccc12"
A: 4.6

Q: Field request: IC50 | item: "Nc1nccc2c(-c3c[nH]c4ncccc34)nccc12"
A: 43

Q: Field request: IC50 | item: "Nc1ncc(-c2c[nH]c3ncccc23)c2ccncc12"
A: 13

----------
# TESTED TARGET: Human ALK1 (Homo sapiens)
# Construct: purchased ALK1
# Sequence (P37023 22-503): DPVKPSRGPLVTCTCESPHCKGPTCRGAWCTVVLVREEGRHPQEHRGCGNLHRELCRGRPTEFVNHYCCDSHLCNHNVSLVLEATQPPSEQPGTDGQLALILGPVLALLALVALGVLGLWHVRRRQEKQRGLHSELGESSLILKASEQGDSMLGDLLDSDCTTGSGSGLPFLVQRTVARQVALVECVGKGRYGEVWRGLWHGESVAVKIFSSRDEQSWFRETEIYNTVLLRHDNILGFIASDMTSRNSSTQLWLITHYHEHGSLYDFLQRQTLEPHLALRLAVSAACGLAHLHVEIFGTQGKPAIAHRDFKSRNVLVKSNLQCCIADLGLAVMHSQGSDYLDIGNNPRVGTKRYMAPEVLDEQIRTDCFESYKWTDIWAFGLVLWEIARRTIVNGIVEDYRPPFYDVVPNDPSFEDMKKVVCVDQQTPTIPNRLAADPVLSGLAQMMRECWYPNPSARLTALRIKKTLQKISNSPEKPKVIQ
# METHOD SUMMARY: Test for the inhibition of ALK-1
# Assay type: biochemical
# ASSAY CONDITIONS: Human ALK1, casein substrate, ATP 10 μM
ENDPOINT LABEL: IC50
Answer format: number, then unit.

Q: Field request: IC50 | item: "Cc1[nH]c2ncccc2c1-c1nccc2c(N)nccc12"
A: 200 nM

Q: Field request: IC50 | item: "Cc1[nH]c2ncccc2c1-c1cnc(N)c2cnccc12"
A: 79 nM
